- RUN_DESCRIPTION: Bmi1 luciferase reporter increase in mESCs, primary screen, esBAF inhibitor project, mouse ES cells, Bmi1 luciferase knock-in, single point (AID 602393);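 note: 0% = median of the plate's neutral control wells and 100% = double that signal; a rise in the Bmi1 reporter signal indicates esBAF inhibition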
- ASSAY_SETUP: 24 h, at 12.5 µM, hits give high values, 100% = twice the neutral-well signal
The whole screen tested about 350,000 compounds, of which about 7,000 (2%) were called active. Shown is part of a subset that was picked to be rich in actives.
Assignment: determine reported reporter increase for the given molecules.
Answer with a number only, understood to be in %.

Assign reporter increase to the following record: c1ccc(-c2cc(-c3ccccc3)[nH]n2)cc1
42.5

# return recorded reporter increase for entry CCN1[C@@H]2Cn3c(ccc(C4=CCCCC4)c3=O)[C@H]1[C@@H](C(=O)N1CCCCC1)[C@@H]2CO
-1.1

Give the reported value of reporter increase for this record: CCCCOC(=O)c1[nH]c(C)c(C(=O)OC)c1C
78.5

// fetch reporter increase given entry COCC(=O)N(C)C[C@H]1Oc2ncc(-c3cccc(OC)c3)cc2C(=O)N([C@H](C)CO)C[C@H]1C
-0.645

Could you please provide reported reporter increase for CCOC(=O)c1oc2ccccc2c1NC(=O)c1cccs1 ? Thanks!
-0.529

Respond only with reporter increase recorded for C[C@@H]1CN([C@@H](C)CO)C(=O)Cc2cc(NS(=O)(=O)c3cccs3)ccc2O[C@H]1CN(C)S(=O)(=O)c1ccc(F)cc1
-3.47

For the molecule CCc1c(C)sc(NC(=O)c2ccc(Br)o2)c1C(=O)OC , give its measured reporter increase value.
0.318

Report measured reporter increase; entry is C[C@@H]1CN([C@@H](C)CO)C(=O)c2cc(C#CCc3ccccc3)cnc2O[C@@H]1CN(C)C(=O)C1CCOCC1
-0.454

Determine its reported reporter increase: COc1ccc(-c2ccc3c(c2)O[C@H](CN(C)Cc2ccccc2C(=O)O)[C@H](C)CN([C@@H](C)CO)S3(=O)=O)cc1
4.05

Retrieve reporter increase measured for Cn1cnc(S(=O)(=O)N2C[C@H](O)COC[C@@H]3O[C@H](CC(=O)NC4Cc5ccccc5C4)CC[C@H]32)c1 and print it.
1.23

Answer with the recorded reporter increase for the molecule listed here: CCC(=O)Nc1ccc2c(c1)C(=O)N(C)[C@@H]1CC[C@@H](CC(=O)N[C@@H](C)c3ccccc3)O[C@@H]1CO2
-1.27

Answer with the recorded reporter increase for the molecule listed here: CC(C)(C)C1CCC(=NNC(=O)c2cc(-c3ccccc3)n[nH]2)CC1 (stereo not drawn)
-0.812

Return the recorded reporter increase value; entry: CC(=O)c1c(C)[nH]c(C(=O)OCC(=O)Nc2c(C)cccc2C)c1C
-23.7

Give reporter increase for CC(=O)N1[C@@H]2Cn3c(ccc(C4=CCCC4)c3=O)[C@H]1[C@@H](C(=O)NC1CCC1)[C@@H]2CO
1.06

Dear colleague, please send me the reported reporter increase for CCCNC(=O)N(C)C[C@H]1Oc2cc(C3=CCCCC3)ccc2S(=O)(=O)N([C@H](C)CO)C[C@H]1C when you can.
-6.45

Could you please provide reported reporter increase for O=C(Cc1ccccn1)NCC[C@H]1CC[C@H](NS(=O)(=O)c2ccccc2)[C@@H](CO)O1 ? Thanks!
-4.76

Give reporter increase for CO[C@H]1CN(C)C(=O)c2cc(NC(=O)c3cc(C)on3)ccc2OC[C@H](C)N(C(C)=O)C[C@H]1C
0.72

Look up and state reported reporter increase for CCCC#Cc1ccc([C@H]2[C@@H](CO)N3CCCCN(S(=O)(=O)Cc4ccccc4)C[C@H]23)cc1
-7.51

====

- RUN_DESCRIPTION: Bmi1 luciferase reporter increase in mESCs, primary screen, esBAF inhibitor project, mouse ES cells, Bmi1 luciferase knock-in, single point (AID 602393)
- ASSAY_SETUP: 24 h, at 12.5 µM, 100% = twice the neutral-well signal
Out of some 350,000 compounds screened, about 7,000 (2%) were called active. Cut-off read from the data, not from the text of the source: active = activation above about 40%; inconclusive = no clear call, values can overlap the other calls; inactive = below that. Shown is part of a subset that was picked to be rich in actives.
Outcome field: choose from active, inactive

Which outcome was entered for the compound O=C1N=C(N2CCOCC2)S/C1=C\C=C/c1ccccc1 in this test?
active

Lab log entry: CC1CCN(C2=NC(=O)/C(=C/c3ccc(O)cc3)S2)CC1 — outcome as called in the assay?
inactive

Please indicate how the test categorized CC(C)c1cccc(-c2csc(C(O)c3ccccc3)n2)c1 (stereo unspecified) .
inactive

Dear colleague, could you share the recorded outcome for CCc1ccc(/C=C2\SC(N3CCOCC3)=NC2=O)cc1 when you have a moment?
inactive

Outcome logged for COc1cccc(C(NC(C)=O)c2nc(-c3cnc4ccccc4c3)cs2)c1 (stereo unspecified) in this assay:
inactive

# fetch the recorded call for Cc1ccsc1/C=C1\SC(N2CCOCC2)=NC1=O here
active

====

Provide the reported reporter increase of each item.
- RUN_DESCRIPTION: Bmi1 luciferase reporter increase in mESCs, primary screen, esBAF inhibitor project, mouse ES cells, Bmi1 luciferase knock-in, single point (AID 602393);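 note: 0% = median of the plate's neutral control wells and 100% = double that signal; a rise in the Bmi1 reporter signal indicates esBAF inhibition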
- ASSAY_SETUP: 24 h, at 12.5 µM, hits give high values, 100% = twice the neutral-well signal
The campaign covered roughly 350,000 compounds. About 7,000 (2%) were called active. The entries come from a sample that favours actives as a whole.
# unit: % | format: bare number

Output reporter increase of Cc1cccc(C)c1NC(=O)COC(=O)c1c(C)nn(-c2ccccc2)c1C
-0.0425

// fetch reporter increase given entry O=C(/C(=C/c1cccc(Cl)c1)c1nc2ccccc2[nH]1)c1ccccc1
98.1

Tell us which reporter increase value is on record for Cc1ccc(OC(=O)c2c(C)nn(-c3ccccc3)c2C)cc1
65

Hello, please tell me recorded reporter increase for this one: C/C=C/c1ccc2c(c1)O[C@@H](CN(C)S(C)(=O)=O)[C@@H](C)CN([C@H](C)CO)S2(=O)=O
-0.163

Fill in reported reporter increase for this entry: Cc1ccc(C(=O)NC(=S)Nc2ccccc2C)cc1
69.2

Read the entry C[C@H]1CN([C@@H](C)CO)C(=O)Cc2cc(NC(=O)Nc3cccc4ccccc34)ccc2O[C@@H]1CN(C)C and write its reported reporter increase.
-2.18

Tell me measured reporter increase for Cc1ccccc1NC(=S)NC(=O)Cc1ccc(Cl)cc1 please.
5.51

Fill in reported reporter increase for this entry: O=C(NCC1CCCCC1)NCC1CCCCC1
44.8

Identify measured reporter increase corresponding to O=C(Nc1ccc(F)cc1)N[C@H]1C=C[C@@H](CC(=O)N2CCOCC2)O[C@H]1CO
-15.4

State its reporter increase for this compound: C[C@@H]1CN([C@@H](C)CO)S(=O)(=O)c2ccc(C#Cc3ccccc3)cc2O[C@@H]1CN(C)C(=O)C1CC1
-5.48

====

- RUN_DESCRIPTION: Bmi1 luciferase reporter increase in mESCs, primary screen, esBAF inhibitor project, mouse ES cells, Bmi1 luciferase knock-in, single point (AID 602393);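 note: 0% = median of the plate's neutral control wells and 100% = double that signal; a rise in the Bmi1 reporter signal indicates esBAF inhibition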
- ASSAY_SETUP: 24 h, at 12.5 µM, hits give high values, 100% = twice the neutral-well signal
About 7,000 (2%) of roughly 350,000 compounds were called active. The sample as a whole holds a higher share of actives than the screen did.
EXPERIMENTAL_READOUT: reporter increase

Supply recorded reporter increase for CC(C)c1nc2cc(C(=O)NC(C)c3cnn(C)c3)ccc2o1 (stereo not given) here.
3.1% (inactive)

Supply reporter increase value. Item: O=C(C[C@H]1C=C[C@H](NC(=O)C2CCOCC2)[C@@H](CO)O1)NCC1CC1
-1.58% (inactive)

Query reporter increase for COC(=O)c1ccc(CNC(=O)c2ccc(S(=O)(=O)N3CCCCCC3)cc2)cc1
1.32% (inactive)

Check the records and state reporter increase for O=c1oc2cc(O)ccc2cc1-c1ccc(F)cc1
47.3% (active)

Note down reporter increase recorded for O=C(NCCN1CCCC1)[C@@H]1N[C@@H]2c3ccc(-c4ccccc4)c(=O)n3C[C@@H]2[C@H]1CO
-5.2% (inactive)

Quote reporter increase reported for CCCNC(=O)C[C@H]1C[C@@H]2c3cc(NC(=O)C4CCOCC4)ccc3O[C@@H]2[C@H](CO)O1 please.
-3.13% (inactive)

Please list reporter increase recorded for the compound CNC(=O)C[C@H]1CC[C@H]2[C@@H](COc3ccc(NC(=O)c4cccc(OC)c4)cc3C(=O)N2C)O1
4.25% (inactive)

Provide reporter increase value for the following compound: CNS(=O)(=O)c1ccc(NC(=O)Nc2ccc3c(c2)OCO3)cc1
52.5% (active)

Using the record for CC(C)CNS(=O)(=O)c1ccc(C(=O)Nc2ccc3c(c2)OCO3)cc1 , state its measured reporter increase.
-0.727% (inactive)

Give the reported value of reporter increase for this record: Cc1ccc(S(=O)(=O)NCC(=O)Nc2ccc3c(c2)OCCO3)cc1
-6.84% (inactive)

====

- RUN_DESCRIPTION: Bmi1 luciferase reporter increase in mESCs, primary screen, esBAF inhibitor project, mouse ES cells, Bmi1 luciferase knock-in, single point (AID 602393);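 note: 0% = median of the plate's neutral control wells and 100% = double that signal; a rise in the Bmi1 reporter signal indicates esBAF inhibition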
- ASSAY_SETUP: 24 h, at 12.5 µM, hits give high values, 100% = twice the neutral-well signal
About 7,000 (2%) of roughly 350,000 compounds were called active. The entries come from a sample that favours actives as a whole.
EXPERIMENTAL_READOUT: reporter increase

Report measured reporter increase; entry is O=C(/C=C/c1ccc(Cl)cc1Cl)NCc1ccco1
44.2% (active)

Please give measured reporter increase of the following entry: O=C(NC1CCCCC1)c1cc(C2CC2)on1
-10.1% (inactive)

Check the records and state reporter increase for Cc1cc(C)cc(NC(=O)NC2CCCCCCC2)c1
15.2% (inactive)

Consider the compound Cc1cccc(NC(=O)Cc2ccc(Br)cc2)n1 and give its recorded reporter increase.
44.9% (active)

Please report the measured reporter increase for Cc1ccccc1OCC(=O)Nc1nc(C)c(C(=O)N(C)C)s1
9.35% (inactive)

Give reporter increase for the following compound: COC(=O)/C=C/C(=O)NCc1ccco1
8.72% (inactive)

Input O=C(C[C@@H]1CC[C@H]2NC[C@H](O)COC[C@@H]2O1)NCCN1CCCCC1 , output reported reporter increase.
6.52% (inactive)

Specify measured reporter increase for NS(=O)(=O)c1ccc(N=Nc2c(O)[nH]c3ccc(Br)cc23)cc1 .
-6.6% (inactive)

Give a short answer stating reported reporter increase for Cc1ccccc1OCC(=O)Nc1nnc(S(=O)(=O)N2CCCC2)s1 .
1.57% (inactive)

Please supply the value of reported reporter increase for the item O=C(/C=C/c1ccco1)NC(=S)N1CCCCC1
11.3% (inactive)

Answer with the recorded reporter increase of CSc1ccccc1NC(=O)c1cc(C2CC2)on1 only.
53.9% (active)

Identify measured reporter increase associated with Cc1cccc(NC(=O)COc2ccc(Br)cc2C)n1
35.7% (inactive)
